tested on: RAW-Dual (murine macrophage reporter line); experiment: IRF reporter (Lucia luciferase) activity fold change vs agonist alone; higher = enhanced IRF activity; conditions: modulator concentration 10 µM; agonist: 3'3'-cGAMP 10 ug/mL
The recorded IRF reporter of each item maps onto one of these classes: lo (below 0.9), med (0.9 to below 1), hi (1 or more)

compound=Cc1cc(OC2CN(C(=O)Cn3nnc4ccccc43)C2)cc(=O)n1C1CC1 discrete_label=med

Q: GET /class?item= "CC(=O)c1ccc(NC(=O)CSc2ccc(-c3ccc4c(c3)OCO4)nn2)cc1"
Ans: med

====

test system: RAW-Dual (murine macrophage reporter line); test: IRF reporter (Lucia luciferase) activity fold change vs agonist alone; higher = enhanced IRF activity; details: modulator concentration 10 µM; agonist: MPLA […]
Listed next: entries and their corresponding IRF reporter.
Please reply with the value in numeric form only.

Q: Give the value of IRF reporter reported for the following: CC1CC(=O)C2=C(C1)OC(N)=C(C#N)C2c1ccc(Br)cc1 (stereo unspecified)
Ans: 0.731

Q: Return IRF reporter (reported value) for this compound: "COc1ccc2c(c1)c(CC(=O)O)c(C)n2C(=O)c1ccc(Cl)cc1"
Ans: 1.29

Q: Give IRF reporter for the following compound: COC(=O)CNC(c1ccccc1)c1cc(Br)ccc1NC(=O)c1ccccc1Cl (stereo unspecified)
Ans: 1.59

Q: Please report the measured IRF reporter for COC(C)(CNC(=O)CSc1ccc(F)cc1)c1cccc(Cl)c1 (stereo unspecified)
Ans: 1.12

Q: Read off the recorded IRF reporter for "O=C1c2ccccc2C(=O)C1c1ccccc1"
Ans: 0.968

Q: Given the compound "CCCN1CCC(NCCc2ccc(Cl)cc2)CC1" , write its reported IRF reporter.
Ans: 0.943

Q: Read the entry COc1cc2c3cc1Oc1cc(ccc1O)OC1c4c(cc(OC)c(O)c4Oc4ccc(cc4)CC3N(C)CC2)CCN1C (stereo unspecified) and write its reported IRF reporter.
Ans: 1.34

Q: Determine its reported IRF reporter: "O=C(CCN1C(=O)c2cccc([N+](=O)[O-])c2C1=O)Nc1ccc(Cl)cc1"
Ans: 1.14

Q: Answer with the recorded IRF reporter of "Cc1cn2nc(C(=O)Nc3ccccc3N3CCN(C)CC3)cc2c(=O)[nH]1" only.
Ans: 1.09

Q: Give IRF reporter for "NC(=O)c1ncn([C@@H]2O[C@H](CO)[C@@H](O)[C@H]2O)c1O"
Ans: 1.16

Q: Provide measured IRF reporter value, entry: "CCOC(=O)c1cc(-c2ccccc2)sc1NC(=O)C(C)(C)C"
Ans: 1.44

====

test system: RAW-Dual (murine macrophage reporter line); test: NF-kB reporter (SEAP) activity fold change vs agonist alone; higher = enhanced NF-kB activity; settings: modulator concentration 10 µM; agonist: CpG ODN 1826 0.5 ug/mL
attribute_measured: NF-kB reporter
Respond numerically, and do not add a unit to the figure.

In the examples that follow, each entry is paired with its recorded NF-kB reporter.
compound="COc1ccc(-c2nc3cc(C4=NNC(=O)CC4C)ccc3[nH]2)cc1 (stereo unspecified)" measured_result=2.4
compound=NCCCS(=O)(=O)O measured_result=0.883
compound="CN1CCOC(c2ccccc2)c2ccccc2C1.Cl (stereo unspecified)" measured_result=1.11
compound=COc1cc(C)n(CCNC(=O)c2ccccc2C(F)(F)F)c(=O)c1 measured_result=0.904
compound=Cc1n[nH]c(C)c1CCC(=O)NC1CCC(F)(F)CC1 measured_result=0.921

Q: Provide RAW-Dual (murine macrophage reporter line) NF-kB reporter reading for Clc1ccc(Nc2nc3nonc3nc2NC2C3CC4CC(C3)CC2C4)cc1 (stereo unspecified) .
Ans: 1.15

Q: GET NF-kB reporter where system = RAW-Dual (murine macrophage reporter line) and item = "CCOC(=O)N1CCN(C(=O)CSc2ccc(-c3ccccc3)nn2)CC1"
Ans: 1.15

Q: Recall the reported NF-kB reporter of "CCOc1ccc2nc(SC(c3ccccc3)c3ccccc3)sc2c1" on RAW-Dual (murine macrophage reporter line) and write it down.
Ans: 1.01

Q: # lookup: RAW-Dual (murine macrophage reporter line) NF-kB reporter, key = "Cc1cnc(NC(=O)C2=C(O)c3ccccc3S(=O)(=O)N2C)s1"
Ans: 1.24

Q: # assay system RAW-Dual (murine macrophage reporter line): give NF-kB reporter of "CCOC(=O)C1=C(C)NC(C)=C(C(=O)OCC)C1c1cc(Cl)cc(Cl)c1OC"
Ans: 0.478

Q: State the measured NF-kB reporter (RAW-Dual (murine macrophage reporter line)) of "Cc1ccc(-n2c(C)cc(C=NNC(=O)CN3CCOCC3)c2C)c(C)c1"
Ans: 0.928
